molecular target: UniProt P15101; assay: Percent inhibition against bovine Dopamine beta hydroxylase (DBH) at 10E-4 M
Sequence (P15101 whole entry): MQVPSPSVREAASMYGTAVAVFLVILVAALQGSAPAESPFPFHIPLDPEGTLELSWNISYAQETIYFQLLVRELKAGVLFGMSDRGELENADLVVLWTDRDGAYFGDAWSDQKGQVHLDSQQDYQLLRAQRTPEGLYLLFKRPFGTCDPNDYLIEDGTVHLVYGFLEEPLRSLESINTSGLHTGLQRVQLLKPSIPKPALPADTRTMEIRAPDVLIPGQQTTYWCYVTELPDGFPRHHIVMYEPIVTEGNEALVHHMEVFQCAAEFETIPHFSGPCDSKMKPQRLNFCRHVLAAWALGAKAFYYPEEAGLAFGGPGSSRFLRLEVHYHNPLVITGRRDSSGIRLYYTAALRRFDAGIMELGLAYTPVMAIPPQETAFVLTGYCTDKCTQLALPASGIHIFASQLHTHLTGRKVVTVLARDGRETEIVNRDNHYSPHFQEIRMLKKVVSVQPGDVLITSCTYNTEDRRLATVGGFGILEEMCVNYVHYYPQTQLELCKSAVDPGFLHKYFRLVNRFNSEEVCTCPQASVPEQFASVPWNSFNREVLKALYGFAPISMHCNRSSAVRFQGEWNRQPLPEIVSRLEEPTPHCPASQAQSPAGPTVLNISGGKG
readout kind: inhibition
Respond with the figure and its unit, in that order.

Data request: Give its inhibition value. Item: "COc1ccccc1Cn1cc[nH]c1=S"
Data returned: 68%

Data request: Return reported inhibition; argument: "COc1ccc(Cn2cc[nH]c2=S)cc1C(F)(F)F"
Data returned: 29%

Data request: Would you mind telling me what inhibition value was observed for "Cc1cccc(C)c1Cn1cc[nH]c1=S" ?
Data returned: 5%

Data request: What value of inhibition has been recorded for this entry: "Cc1ccccc1Cn1cc[nH]c1=S"
Data returned: 15%

Data request: Form field: reported inhibition of "S=c1[nH]ccn1Cc1c(Cl)cccc1Cl"
Data returned: 7%

Data request: Quick one: inhibition of "S=c1[nH]ccn1Cc1ccccc1Cl" ?
Data returned: 14%

Data request: Item under review: "FC(F)(F)c1ccc(Cn2cc[nH]c2=S)cc1" . Reported inhibition?
Data returned: 25%

Data request: What does the data say about its inhibition? Entry: "S=c1[nH]ccn1Cc1ccc(Br)cc1"
Data returned: 43%

More entries:
Data request: // returns reported inhibition for input "COc1cccc(OC)c1Cn1cc[nH]c1=S"
Data returned: 10%

Data request: Which value of inhibition has been reported for "COc1ccc(Cn2ccnc2S)cc1S(N)(=O)=O" in the records?
Data returned: 7%

Data request: Reported inhibition, compound "COc1cc(Cl)c(Cn2cc[nH]c2=S)c(Cl)c1" : ____
Data returned: 32%

Data origin: ChEMBL document CHEMBL1123691
